Where do these numbers come from? They come from ChEMBL document CHEMBL3885881.

Organism: Rattus norvegicus
ASSAY_DETAILS: DrugMatrix - Regimen: Daily Repeat
Type: toxicity, organism-based, Sprague-Dawley
Parameters: regimen Daily Repeat, gender Male, age 6-8 weeks
EXPERIMENTAL_PARAMETERS: in vivo, ip, 0 mg/kg, […], tissue Blood, route intraperitoneal, dose level Control, time 14 day, vehicle 100 % SALINE
MEASUREMENT_NAME: ABSOLUTE SEGMENTED NEUTROPHIL (cells/µL)
Field format: number, assumed cells/µL, no unit text.

input: Which measured ABSOLUTE SEGMENTED NEUTROPHIL value corresponds to GENTAMICIN ?
output: 2330

---

Organism: Rattus norvegicus
ASSAY_DETAILS: DrugMatrix - Regimen: Daily Repeat
Assay type: toxicity, organism-based, Sprague-Dawley
Set-up: regimen Daily Repeat, gender Male, age 6-8 weeks
EXPERIMENTAL_PARAMETERS: in vivo, po, 0 mg/kg, 120 h, tissue Plasma, route oral GAVAGE, dose level Control, time 5 day, vehicle 100 % WATER
# ALKALINE PHOSPHATASE per record follows
Field format: number, assumed u/L, no unit text.

• C[C@]12C=CC(=O)C=C1CC[C@@H]1[C@@H]2[C@@H](O)C[C@@]2(C)[C@H]1CC[C@]2(O)C(=O)CO = 371.5
• CC(C)NCC(O)c1ccc(NS(C)(=O)=O)cc1 (stereo not drawn) = 415.67
• CC(C)(C)CC(C)(C)c1ccc(OCCOCC[N+](C)(C)Cc2ccccc2)cc1.[Cl-] [BENZETHONIUM CHLORIDE] = 343
• CN(C)CCOC(c1ccccc1)c1ccccc1 [DIPHENHYDRAMINE] = 343

input: Which measured ALKALINE PHOSPHATASE value corresponds to CS(=O)(=O)c1ccc([C@@H](O)[C@@H](CO)NC(=O)C(Cl)Cl)cc1 ?
output: 354.33

input: Which measured ALKALINE PHOSPHATASE value corresponds to O.O.O.O.O.O.[Cl-].[Cl-].[Sr+2] [STRONTIUM CHLORIDE HEXAHYDRATE] ?
output: 354.33

input: Which measured ALKALINE PHOSPHATASE value corresponds to Cc1ccc(NC(=O)c2ccc(CN3CCN(C)CC3)cc2)cc1Nc1nccc(-c2cccnc2)n1 ?
output: 354.33

input: Which measured ALKALINE PHOSPHATASE value corresponds to CN(C)CC[C@@H](c1ccc(Cl)cc1)c1ccccn1 ?
output: 355.5
